# Test system: SK-MEL-28
# ASSAY METHOD TEXT: NCI tumour cell line growth inhibition, 48 h
Activity calls are given as the source filed them. Rule as the data show it: active = GI50 up to about 1.1 µM and inactive = higher.
RESULT TYPE: GI50

Task: Query for SK-MEL-28: what GI50 does the record show for `Cc1cn2c(/C=C3/C(=O)Nc4ccccc43)c(C)nc2s1` ?
Result: 5.96 µM (inactive)

Task: Param item: `CNc1ccc2nc(-c3ccc(OC(=O)N(C)C)cc3)cn2c1`
Result: 45.8 µM (inactive)

Task: Param item: `CC(C)(C)C(=O)C(C(=O)c1ccccc1)C(=O)C(C)(C)C`
Result: > 100 µM (inactive)

Task: Param item: `CC1(C)CC2(CC(C)(C)N1O)NC(=O)OC2=O`
Result: > 100 µM (inactive)

Task: Param item: `O=C(/C=C/c1ccccc1)CCc1c(O)c2ccccc2oc1=O`
Result: > 100 µM (inactive)

Task: Param item: C=C1CCC2[C@](C)(CCC[C@]2(C)C(=O)O)[C@@H]1CCc1ccoc1 (stereo partly specified)
Result: 61.1 µM (inactive)

Task: Param item: `COc1ccc(N2C=Nn3c(nc4sc5c(c4c3=O)CCCC5)C2)cc1`
Result: > 100 µM (inactive)

Task: Param item: `CN(CO)c1nc(N(C)CO)nc(N(C)CO)n1`
Result: 13.6 µM (inactive)

Task: Param item: `S=P(N1CCCC1)(N1CC1)N1CC1`
Result: > 100 µM (inactive)

Task: Param item: `Cc1ccc2c(O)cc(-c3cccs3)nc2n1`
Result: 7.33 µM (inactive)

Task: Param item: CC(C)=CC(Cc1ccccc1)S(=O)(=O)c1nc2ccccc2s1 (stereo unspecified)
Result: 16.1 µM (inactive)
